Assay: Compound 1 PK dosed Days 1-3 with etoposide and carboplatin
Assay type: in vivo, human
Details: human, plasma, intravenous, 200 mg/m2, 200 mg/m^2 with Etoposide and Carboplatin, Day 1, Median; read-out: t½ (converted)
reported metric: half-life (h)
Your answer is read as h, so omit the unit and give the number.

Query CN1CCN(c2ccc(Nc3ncc4cc5n(c4n3)C3(CCCCC3)CNC5=O)nc2)CC1 yields half-life of 8.09

----------
Test: 14-day oral gavage toxicokinetic study in rats
Assay type: in vivo
Conditions: female, rat, plasma, po, 15 mg/kg, oral 15 mg/kg, Study Day 14, Female
reported metric: Cmax (ng/mL)
Please respond with the number in ng/mL and leave the unit unwritten.

The value of Cmax measured for the compound CN1CCN(c2ccc(Nc3ncc4cc5n(c4n3)C3(CCCCC3)CNC5=O)nc2)CC1 [Compound 1] turned out to be 1570

----------
Experiment: 14-day oral gavage toxicokinetic study in rats
Type: in vivo
Details: male, rat, plasma, po, 15 mg/kg, Individual Compound 1 Plasma Concentration, rats, daily oral 15 mg/kg, Day 1, Male, 12 h
reported metric: concentration at 12 h (ng/mL)
Dear colleague, please return just the value in ng/mL, with no unit written.

concentration at 12 h for CN1CCN(c2ccc(Nc3ncc4cc5n(c4n3)C3(CCCCC3)CNC5=O)nc2)CC1 [Compound 1] is 451

----------
Experiment: Topotecan PK following Compound 1 infusion
Type: in vivo, human
Conditions: human, plasma, intravenous, topotecan […]^2 (Cohort 1) after Compound 1 200 mg/m^2; Day 1; mean; read-out: AUCinf averaged
reported metric: AUC(0-inf) (ng·h/mL)
Answer in ng·h/mL, number only, no unit symbol.

AUC(0-inf) measured on CC[C@@]1(O)C(=O)OCc2c1cc1n(c2=O)Cc2cc3c(CN(C)C)c(O)ccc3nc2-1.Cl = 152

----------
Assay: 14-day oral gavage toxicokinetic study in rats
Type: in vivo
Settings: female, rat, plasma, po, 5 mg/kg, oral 5 mg/kg, Study Day 14, Female
reported metric: Cmax (ng/mL)
Hi! Could you send only the number? It should be in ng/mL, unit omitted.

Form: compound = CN1CCN(c2ccc(Nc3ncc4cc5n(c4n3)C3(CCCCC3)CNC5=O)nc2)CC1 ; Cmax = 519

----------
Experiment: 14-day oral gavage toxicokinetic study in rats
Assay type: in vivo
Details: female, rat, plasma, po, 2 mg/kg, oral 2 mg/kg, Study Day 14, Female
reported metric: Cmax (ng/mL)
I only need the number, in ng/mL, no unit after it.

The recorded Cmax for entry CN1CCN(c2ccc(Nc3ncc4cc5n(c4n3)C3(CCCCC3)CNC5=O)nc2)CC1 [Compound 1] equals 212

----------
Experiment: 14-day oral gavage toxicokinetic study in rats
Format: in vivo
Details: female, rat, plasma, po, 30 mg/kg, Mean Compound 1 Plasma Concentration, rats, oral 30 mg/kg, Day 1, […], Female
reported metric: concentration at […]

# concentration at […] (molecule: CN1CCN(c2ccc(Nc3ncc4cc5n(c4n3)C3(CCCCC3)CNC5=O)nc2)CC1 ) is 0.0929 µg/mL

----------
Experiment: 14-day oral gavage toxicokinetic study in rats
Type: in vivo
Details: male, rat, plasma, po, 30 mg/kg, Individual Compound 1 Plasma Concentration, rats, daily oral 30 mg/kg, Day 1, Male, 2 h
reported metric: concentration at 2 h (ng/mL)
Write it as a number; the unit ng/mL goes unstated.

# concentration at 2 h of CN1CCN(c2ccc(Nc3ncc4cc5n(c4n3)C3(CCCCC3)CNC5=O)nc2)CC1 = 1810

----------
Assay: Single escalating dose IV infusion pharmacokinetics in healthy volunteers (noncompartmental)
Assay type: in vivo, human
Conditions: both sexes, human, plasma, iv, 96 mg/m^2, Compound 1 Concentration, Cohort 5, 96 mg/m^2 IV; Time 0.50 h; r7-12=Subjects 1-6,r14=Mean,r16=Min,r17=Median,r18=Max,r20=Geometric Mean
reported metric: concentration at 0.5 h (ng/mL)
Please give a number only; it is taken to be in ng/mL.

So for CN1CCN(c2ccc(Nc3ncc4cc5n(c4n3)C3(CCCCC3)CNC5=O)nc2)CC1 [Compound 1] , the logged concentration at 0.5 h turned out to be 992

----------
Experiment: Compound 1 PK dosed Days 1-5 with topotecan
Type: in vivo, human
Conditions: human, plasma, intravenous, Cohort 1 (Topotecan […]^2); Compound 1 200 mg/m^2; Day 1; mean; read-out: AUCinf averaged
reported metric: AUC(0-inf)
Please provide the amount together with its unit, number first.

The value of AUC(0-inf) measured for the molecule CN1CCN(c2ccc(Nc3ncc4cc5n(c4n3)C3(CCCCC3)CNC5=O)nc2)CC1 [Compound 1] turned out to be 2140 ng·h/mL

----------
Assay: Single escalating dose IV infusion pharmacokinetics in healthy volunteers (noncompartmental)
Assay type: in vivo, human
Details: both, human, plasma, iv, […]2, Cohort 6, […]^2 IV; 0-24.5 hr data; mean; read-out: Half-lives averaged (converted)
reported metric: half-life (h)
Respond numerically; units are h and should not be typed.

Record summary for CN1CCN(c2ccc(Nc3ncc4cc5n(c4n3)C3(CCCCC3)CNC5=O)nc2)CC1 [Compound 1] : reported half-life = 7.87

----------
Assay: 14-day oral gavage toxicokinetic study in rats
Format: in vivo
Conditions: both sexes, rat, plasma, po, 30 mg/kg, Mean Compound 1 Plasma Concentration, rats, oral 30 mg/kg, Day 1, 12 h, Overall
Procedure: Plasma was obtained from blood samples collected from rats in a composite sampling scheme, with 3 samples collected per sex, per dose, at each target collection time, as illustrated in Table 21 to Table 25. […] The following parameters were determined: […] A value of 0 ng/mL was assigned to all values below the lower limit of quantitation (BLQ, <10.0 ng/mL). […] CL: Clearance (L/h/kg), calculated as the dose divided by AUC(0-t). […] Cmax/Dose: Normalized Cmax, calculated as Cmax divided by total dose. […]
reported metric: concentration at 12 h

Item: CN1CCN(c2ccc(Nc3ncc4cc5n(c4n3)C3(CCCCC3)CNC5=O)nc2)CC1 [Compound 1] | concentration at 12 h: 1800 ng/mL

----------
Assay: 14-day oral gavage toxicokinetic study in rats
Format: in vivo
Settings: male, rat, plasma, po, 30 mg/kg, oral 30 mg/kg, Study Day 1, Male
reported metric: AUC(0-t)
In your response, the unit should come after the numeric value.

Please fill in: AUC(0-t) reported for CN1CCN(c2ccc(Nc3ncc4cc5n(c4n3)C3(CCCCC3)CNC5=O)nc2)CC1 [Compound 1] = 33000 ng·h/mL

----------
Experiment: 3-compartment model pharmacokinetic analysis, Cohorts 5 and 6
Format: in vivo, human
Details: both, human, plasma, intravenous, […]2; read-out: γ phase half-life averaged (converted)
reported metric: half-life (h)
All answers are understood in h, so give the number only.

Consider CN1CCN(c2ccc(Nc3ncc4cc5n(c4n3)C3(CCCCC3)CNC5=O)nc2)CC1 [Compound 1] . Its measured half-life is 14

----------
Test: Repeat-dose toxicity in rats (IV 7 days, oral 14 days)
Type: in vivo
Conditions: rat, in vivo, oral
reported metric: NOAEL at 14 days (mg/kg)
Please give a number only; it is taken to be in mg/kg.

The molecule listed as CN1CCN(c2ccc(Nc3ncc4cc5n(c4n3)C3(CCCCC3)CNC5=O)nc2)CC1 [Compound 1] shows NOAEL at 14 days equal to 2

----------
Assay: 14-day oral gavage toxicokinetic study in rats
Assay type: in vivo
Conditions: female, rat, plasma, po, 5 mg/kg, oral 5 mg/kg, Study Day 14, Female
reported metric: AUC(0-inf) (ng·h/mL)
Report only the number, with the unit ng·h/mL understood.

Looking up CN1CCN(c2ccc(Nc3ncc4cc5n(c4n3)C3(CCCCC3)CNC5=O)nc2)CC1 , I found its AUC(0-inf) recorded as 4740

----------
Assay: 14-day oral gavage toxicokinetic study in rats
Type: in vivo
Conditions: female, rat, plasma, po, 30 mg/kg, oral 30 mg/kg, Study Day 1, Female
reported metric: AUC(0-inf) (ng·h/mL)
Reply with just the number (in ng·h/mL).

The reported value for CN1CCN(c2ccc(Nc3ncc4cc5n(c4n3)C3(CCCCC3)CNC5=O)nc2)CC1 in terms of AUC(0-inf) is 43800

----------
Test: Single escalating dose IV infusion pharmacokinetics in healthy volunteers (noncompartmental)
Assay type: in vivo, human
Settings: both sexes, human, plasma, iv, 48 mg/m^2, Compound 1 Concentration, Cohort 4, 48 mg/m^2 IV; Time 0.25 h; r7-9=Subjects 1-3,r11=Mean,r13=Min,r14=Median,r15=Max,r17=Geometric Mean
reported metric: concentration at 0.25 h (ng/mL)
Expressed in ng/mL, but write only the number.

For this molecule ( CN1CCN(c2ccc(Nc3ncc4cc5n(c4n3)C3(CCCCC3)CNC5=O)nc2)CC1 ), measured concentration at 0.25 h is 192

----------
Assay: 14-day oral gavage toxicokinetic study in rats
Assay type: in vivo
Details: both sexes, rat, plasma, po, 15 mg/kg, oral 15 mg/kg, Study Day 14, Overall
Method: Plasma was obtained from blood samples collected from rats in a composite sampling scheme, with 3 samples collected per sex, per dose, at each target collection time, as illustrated in Table 21 to Table 25. […] The following parameters were determined: […] A value of 0 ng/mL was assigned to all values below the lower limit of quantitation (BLQ, <10.0 ng/mL). […] CL: Clearance (L/h/kg), calculated as the dose divided by AUC(0-t). […] Cmax/Dose: Normalized Cmax, calculated as Cmax divided by total dose. […]
reported metric: Tmax

Entry CN1CCN(c2ccc(Nc3ncc4cc5n(c4n3)C3(CCCCC3)CNC5=O)nc2)CC1 — recorded Tmax = 2 h
